I'd be grateful if you could share measured inhibition for these entries.
target: Ribosomal protein S6 kinase beta-1 (Homo sapiens) (UniProt P23443); conditions: at 1 µM;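 further: values are mean inhibition of p70S6K1, measured as part of the GSK PKIS panel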
Sequence (P23443 whole entry, looked up): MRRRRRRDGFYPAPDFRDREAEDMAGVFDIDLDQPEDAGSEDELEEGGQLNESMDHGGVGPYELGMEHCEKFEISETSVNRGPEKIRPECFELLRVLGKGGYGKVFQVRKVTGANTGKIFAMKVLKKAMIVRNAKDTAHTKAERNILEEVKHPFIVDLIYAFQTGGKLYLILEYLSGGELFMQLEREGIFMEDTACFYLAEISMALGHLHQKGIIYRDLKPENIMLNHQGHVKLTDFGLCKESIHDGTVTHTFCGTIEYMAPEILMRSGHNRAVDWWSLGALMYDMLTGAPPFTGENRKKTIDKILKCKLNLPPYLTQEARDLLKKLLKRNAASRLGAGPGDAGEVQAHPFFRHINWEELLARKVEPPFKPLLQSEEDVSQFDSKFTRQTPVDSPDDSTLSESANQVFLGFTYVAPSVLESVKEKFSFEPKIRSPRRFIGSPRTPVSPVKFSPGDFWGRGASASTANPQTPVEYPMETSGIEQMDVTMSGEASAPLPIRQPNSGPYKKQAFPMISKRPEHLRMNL
Write the value in % as a bare number.

Query string: Bench note: what inhibition did Fc1ccc(-c2ncn(C3CCNCC3)c2-c2ccnc(Oc3ccc(Oc4ccccc4)cc3)n2)cc1 show?
Result string: 4.57

Query string: Can you handle COc1cccc(-n2cnc3c(N/N=C/c4ccncc4)ncnc32)c1 next?
Result string: 1.15

Query string: Can you handle CCc1ccc(Oc2nccc(-c3c(-c4ccc(F)cc4)ncn3C3CCNCC3)n2)cc1 next?
Result string: 5.93

Query string: Can you handle CN(C)CCCNc1nccc(-c2c(-c3ccc(F)cc3)nn3cc(C(F)(F)F)ccc23)n1 next?
Result string: 3.55

Query string: Can you handle C#Cc1cccc(Nc2ncnc3ccc(OCCCCNCCS(C)(=O)=O)cc23)c1 next?
Result string: 3.29

Query string: Can you handle COc1ccc2ncn(-c3cc(O[C@H](C)c4ccccc4Cl)c(C(N)=O)s3)c2c1 next?
Result string: 2.8

Query string: Can you handle C/C(Nc1ccc(S(N)(=O)=O)cc1)=C1/C(=O)Nc2ccccc21 next?
Result string: 2.17

Query string: Can you handle COc1ccc2cc(-c3c(-c4ccncc4)nc(-c4ccc(S(C)(=O)=O)cc4C)n3C)ccc2c1 next?
Result string: 3.34

Query string: Can you handle CN(C)CCOc1ccc(-c2cc(-c3ccc4c(c3)CCC4=NO)c(-c3ccncc3)o2)cc1 next?
Result string: -2.77
